reported_metric: melting point

• Fc1ccc(CN(Cc2ncc(-c3ccccc3)s2)c2cccc(Oc3ccccc3)c2)cc1 [Compound 17b] = 90.5 to 92.5 °C

INPUT: Item COc1ccc(N(Cc2ccc(F)cc2)Cc2nc(-c3ccc(C(F)(F)F)cc3)cs2)cc1OC has what recorded melting point?
OUTPUT: 88.7 to 89.5 °C

INPUT: Item COc1ccc(N(Cc2ccc(F)cc2)Cc2nc(-c3ccc(C#N)cc3)cs2)cc1OC has what recorded melting point?
OUTPUT: 105.4 to 106.6 °C

INPUT: Item COc1ccc(N(Cc2ccc(F)cc2)Cc2nc(-c3ccc(NC(=O)C(F)(F)F)cc3)cs2)cc1OC has what recorded melting point?
OUTPUT: 143.6 to 145.8 °C

INPUT: Item Fc1ccc(CN(Cc2nnc(-c3ccccc3)o2)c2cccc(Oc3ccccc3)c2)cc1 [Compound 17e] has what recorded melting point?
OUTPUT: 97.3 to 98.2 °C

INPUT: Item COc1ccc(N(Cc2ccc(F)cc2)Cc2nc(-c3cccc([N+](=O)[O-])c3)cs2)cc1OC has what recorded melting point?
OUTPUT: 120.5 to 121.6 °C
